Recorded stoichiometry N values for a group of proteins are listed next.
# TARGET SYSTEM: the molecule itself
# METHOD DESCRIPTION: SAXS

protein="PF0380 (conserved hypothetical protein) (natural protein) MGVEKVPKYDIPVKKVEYVFIELDKMKPHEQLVQRELEDFIESVTGSGIFWKPMLLAKIPGTDEYLIVDGHHRWAGLQKLGAKRAPSVILDYFDEGVKVYTWYPAFKGDVNKVIERLKAEGLEVIEDEKAEEKAEKGEIAFALIGEKSFAIPGGLEEQKKVSKVLDEMDQAKEIELVYYGLKEDAKADMEKGEIDYVFIRKAPTKEEVMELVKRGEVFSPKTTRHVLPFIPDKIDVKLEDLF" recorded_endpoint="stoichiometry N" assay_result=2

IN: Which value of stoichiometry N has been reported for PF0259 (conserved hypothetical protein) (natural protein) MAVIIEFSLIPLGEVSVSKYIAEAIKLLEEKGVKYQLTPMGTIIEVGSVEEGLKIVGEAHELMFKLGVKRVVTHIKIDDRRDKERKMEDKVKSVIEKVKK in the records?
OUT: 8
